# Tested on: COLO 205
# METHOD NOTES: NCI tumour cell line growth inhibition, 48 h
Activity calls are given as the source filed them. Cut-off read from the data, not from the text of the source: active = GI50 up to about 1.1 µM and inactive = higher.
Permitted responses: active, inactive

Reference set, count: 10
COc1cc(C2C3=C(N=C4SC(C(C)=O)=C(C)N42)c2ccccc2CC3)cc(OC)c1OC (centres undefined) :: inactive
O=C1c2ccccc2C(O)(C(=O)O)C1(O)CC=C(Cl)Cl (centres undefined) :: inactive
O=C(C1C(c2ccccc2)N1C(c1ccccc1)c1ccccc1)C1C(c2ccccc2)N1C(c1ccccc1)c1ccccc1 (centres undefined) :: inactive
CCc1nc2c(c(N(C)C)c1C(=O)OC)CCc1ccccc1-2 :: inactive
CC(=O)C(C(C)=O)[C@H]1OC(C)(C)O[C@H]1[C@H]1COC(C)(C)O1 :: inactive
CC1(C)CC(=O)c2c(nc3c4c([nH]c(-c5ccc([N+](=O)[O-])cc5)c24)CC(C)(C)C3)C1 :: inactive
CCCCOC(C)(C)/C=C/C(O)[C@](C)(O)[C@H]1[C@H](O)C[C@@]2(C)[C@@H]3CCc4c(cc(OC5OC(CO)C(O)C(O)C5O)c(O)c4C)C3(C)C(=O)C[C@]12C (some centres undefined) :: inactive
Cc1cc2c(C(C)C)c(O)c(O)c(C=O)c2c(O)c1-c1c(C)cc2c(C(C)C)c(O)c(O)c(C=O)c2c1O :: inactive
COc1cc(OC)cc(Oc2nc3ccc(C(F)(F)F)cc3nc2-c2ccccc2)c1 :: inactive
Cn1c(=O)c2nc3c(=O)n(C)c(=O)n(CC(N)=O)c3nc2n(C)c1=O :: inactive

Incoming: Please state the recorded outcome for this compound: O=C(O)C(Cc1cccs1)NC(=O)C(F)(F)F (centres undefined)
Outgoing: inactive

Incoming: Another: COC(=O)[C@]1(C)CCC[C@@]2(C)C1CCC1=CC3(C(C)C)CCC12OO3 (some centres undefined)
Outgoing: inactive

Incoming: Another: CC(NNC(=O)c1cc[n+]([BH2-]C#N)cc1)c1ccc(Cl)cc1Cl (centres undefined)
Outgoing: inactive

Incoming: Another: `CCCCCCc1cc2cc(-c3csc(-c4ccc(OC)cc4)n3)c(=O)oc2cc1O`
Outgoing: inactive

Incoming: Another: COc1ccc(N2C(=O)[C@@H]3[C@H](C2=O)c2[nH]c4ccccc4c2C2CCC(C(C)(C)C)C[C@@H]23)cc1 (some centres undefined)
Outgoing: inactive

Incoming: Another: CC(=O)Nc1ccc(C(=O)NN2C(=O)C(Cl)C2c2cccc([N+](=O)[O-])c2)cc1 (centres undefined)
Outgoing: inactive

Incoming: Another: `c1ccc(-c2ccc(-c3ccc(C4=NCCN4)cc3)o2)cc1`
Outgoing: inactive

Incoming: Another: `O=c1cc(-c2ccccc2F)[nH]c2ccc(N3CCCC3)cc12`
Outgoing: active

Incoming: Another: CC(=O)N1N=C(c2cc(C)ccc2O)CC1c1cccc(Cl)c1 (centres undefined)
Outgoing: inactive

###

# Tested on: KM12
# METHOD NOTES: NCI tumour cell line growth inhibition, 48 h
Activity calls are given as the source filed them. No stated cut-off is given here; in the data, active = GI50 up to about 1.1 µM and inactive = higher.
Permitted responses: active, inactive

Reference set, count: 5
CC(C)(C)OC(=O)CC(NC(=O)OC(C)(C)C)C(=O)NC(C(=O)O)C(O)c1ccccc1 (stereo unspecified) :: inactive
C=C1C(=O)OC2C1C(OC(=O)/C(C)=C/C)CC(O)(CCl)C1C(O)C=C(C)C21O (stereo unspecified) :: inactive
OCCN1c2ccccc2Sc2ccccc21 :: inactive
Cc1c2ccncc2c(C)c2c1[nH]c1ccccc12 :: active
CCN(CC)CCCNc1ncc(C)c2c1c1ccc3c(O)cccc3c1n2C :: inactive

Would you kindly look at the next entry?
Incoming: Please state the recorded outcome for this compound: COC(=O)CCC(NC(=S)N/N=C(\C)c1nccs1)C(=O)OC (stereo unspecified)
Outgoing: inactive

###

# System: SN12C
# METHOD NOTES: NCI tumour cell line growth inhibition, 48 h
The source made the active and inactive calls. No stated cut-off is given here; in the data, active = GI50 up to about 1.1 µM and inactive = higher.
Permitted responses: Yes = active, No = inactive

Reference set, count: 2
Nc1c2c(nc3cc(F)c(F)cc13)CCC2 :: No
CC(=O)N(C)c1ccc(Nc2ccnc3ccc4nn(C)nc4c23)cc1 :: No

Incoming: Please state the recorded outcome for this molecule: `CN(C)c1ccc(/C=C2\Oc3ccccc3C2=O)cc1`
Outgoing: No

Incoming: Another: `Cc1c2ccncc2c(C)c2c1[nH]c1ccccc12`
Outgoing: Yes

Incoming: Another: CON(C)C(=O)C(Cc1ccccc1)NC(=O)OC(C)(C)C (configuration not stated)
Outgoing: No

Incoming: Another: `COc1ccc(C2=C(N)c3c(Cl)cccc3C2=O)cc1`
Outgoing: No

Incoming: Another: N#CC1C(=O)C(=O)N(c2ccccc2)C1=O (configuration not stated)
Outgoing: No

###

# Tested on: RPMI-8226
# METHOD NOTES: NCI tumour cell line growth inhibition, 48 h
Activity calls are given as the source filed them. Rule as the data show it: active = GI50 up to about 1.1 µM and inactive = higher. Starred links: 1 amine or outer side, 2 acyl side, 3 side chain; linkers in the order of their positions; H or OH if unused. Non-standard residues stand in square brackets, D forms with d. Residues, ends and D or L forms follow the SMILES beside them. *: point of attachment. X47 = CCC(=O)CC1CC(C)CC(C(=O)[*:2])N1[*:1]; X46 = CCCCCCCCC(C)C(=O)*; Aib = CC(C)(N)C(=O)O; X48 = CC(CN(C)CCO)N*
Permitted responses: 1.0 (active), 0.0 (inactive)

Reference set, count: 2
CC(=O)OCCOCn1cnc2c(Cl)nc(Cl)nc21 :: 0.0
CC(=O)Oc1cc(/C=C/c2ccc(O)cc2)cc(OC(C)=O)c1 :: 0.0

Incoming: Please state the recorded outcome for this compound: CC(=O)N1N=C(c2cc(C)ccc2O)CC1c1cccc(Cl)c1 (stereo not given)
Outgoing: 0.0

Incoming: Another: CCCCCCCCC(C)C(=O)N1CCCC1C(=O)N1C(CC(=O)CC)CC(C)CC1C(=O)NC(C)C(=O)NC(C)(C)C(=O)NC(C)(C)C(=O)NC(C(=O)NC(C)C(=O)NC(C)(C)C(=O)NC(C)(C)C(=O)NC(C)CN(C)CCO)C(C)CC (stereo not given) (X46-P[X47]A[Aib][Aib]IA[Aib][Aib]-X48; configuration not given here)
Outgoing: 1.0

Incoming: Another: `CNC(=S)N/N=C(\C)c1nc2cccnc2[nH]1`
Outgoing: 0.0

Incoming: Another: OCC1OC(n2cnc3c2NC=NC[C@H]3O)C(O)C1O (stereo not given in full)
Outgoing: 0.0

###

# Test system: HT-29
# METHOD NOTES: NCI tumour cell line growth inhibition, 48 h
Activity calls are given as the source filed them. Rule as the data show it: active = GI50 up to about 1.1 µM and inactive = higher.
Permitted responses: true for active, false for inactive

Incoming: Please state the recorded outcome for this compound: CC(=O)[C@H]1CC[C@@H]2[C@]1(C)CC=C1[C@]23C=C[C@]2(C[C@@H](O)CC[C@]12C)C(C(=O)O)C3C(=O)O (stereo partly specified)
Outgoing: false

Incoming: Another: `Clc1ccccc1C(n1ncc2ccccc21)n1ncc2ccccc21`
Outgoing: false

Incoming: Another: O=[N+]([O-])C1C2C=CC(C2)[C@H]1c1ccc(Cl)cc1Cl (stereo partly specified)
Outgoing: false

Incoming: Another: `N#Cc1nc(COCCOCc2ccc(F)cc2)oc1N`
Outgoing: false

###

# System: DLD-1
# METHOD NOTES: NCI tumour cell line growth inhibition, 48 h
Active and inactive are the calls of the source. Cut-off read from the data, not from the text of the source: active = GI50 up to about 1.1 µM and inactive = higher.
Reported GI50 by item:

CN(C)CC1(C)CC/C(=C\c2ccccc2)C1=O (centres undefined) :: > 100 µM (inactive)
CN1Cc2cc3c(cc2-c2ccccc21)OCO3 :: > 100 µM (inactive)
N#CC(C#N)=Cc1ccc(Oc2ccccc2)cc1 :: 14.1 µM (inactive)

Incoming: Which GI50 is reported with DLD-1 for this entry: `NC(=S)NNC(=O)CCC(=O)Nc1ccc(Cl)cc1Cl` ?
Outgoing: > 100 µM (inactive)

Incoming: Another: CCCCCCCC(=O)OCC1OC(n2cc(F)c(=O)[nH]c2=O)C(N)C(O)C1O (centres undefined)
Outgoing: > 100 µM (inactive)

Incoming: Another: CC(CN1CCN(CC(C)Nc2ccnc3cc(Cl)ccc23)CC1)Nc1ccnc2cc(Cl)ccc12 (centres undefined)
Outgoing: 16.9 µM (inactive)

Incoming: Another: CC(=O)Nc1ccc(C(=O)NN2C(=O)C(Cl)C2c2cccc([N+](=O)[O-])c2)cc1 (centres undefined)
Outgoing: > 100 µM (inactive)

Incoming: Another: COC(=O)C1Cc2c([nH]c3ccccc23)C=N1 (centres undefined)
Outgoing: > 100 µM (inactive)

Incoming: Another: `O=C(Cc1nc2ccccc2s1)C(=O)Nc1cccc(C(F)(F)F)c1`
Outgoing: > 100 µM (inactive)

###

# Tested on: UACC-257
# METHOD NOTES: NCI tumour cell line growth inhibition, 48 h
Calls of active or inactive are those of the source. Cut-off read from the data, not from the text of the source: active = GI50 up to about 1.1 µM and inactive = higher.
MEASURED METRIC: GI50

O=C1Oc2ccccc2C(=O)/C1=C/NC(=S)Nc1ccccc1 :: 77.6 µM (inactive)

Incoming: // returns reported GI50 for input C[C@]12CC[C@H](O)CC1=CC[C@@H]1[C@@H]2CC[C@]2(C)C(=O)CC[C@@H]12 [PRASTERONE]
Outgoing: > 100 µM (inactive)

Incoming: Another: `CCOC(CN(C)C(=O)Nc1ccc(Cl)c(Cl)c1)OCC`
Outgoing: > 10 µM (inactive)
